For each record, write down the corresponding AC50.
# tested_target: Progesterone receptor (Homo sapiens); also: assay procedure not described here
# Sequence (P06401 whole entry): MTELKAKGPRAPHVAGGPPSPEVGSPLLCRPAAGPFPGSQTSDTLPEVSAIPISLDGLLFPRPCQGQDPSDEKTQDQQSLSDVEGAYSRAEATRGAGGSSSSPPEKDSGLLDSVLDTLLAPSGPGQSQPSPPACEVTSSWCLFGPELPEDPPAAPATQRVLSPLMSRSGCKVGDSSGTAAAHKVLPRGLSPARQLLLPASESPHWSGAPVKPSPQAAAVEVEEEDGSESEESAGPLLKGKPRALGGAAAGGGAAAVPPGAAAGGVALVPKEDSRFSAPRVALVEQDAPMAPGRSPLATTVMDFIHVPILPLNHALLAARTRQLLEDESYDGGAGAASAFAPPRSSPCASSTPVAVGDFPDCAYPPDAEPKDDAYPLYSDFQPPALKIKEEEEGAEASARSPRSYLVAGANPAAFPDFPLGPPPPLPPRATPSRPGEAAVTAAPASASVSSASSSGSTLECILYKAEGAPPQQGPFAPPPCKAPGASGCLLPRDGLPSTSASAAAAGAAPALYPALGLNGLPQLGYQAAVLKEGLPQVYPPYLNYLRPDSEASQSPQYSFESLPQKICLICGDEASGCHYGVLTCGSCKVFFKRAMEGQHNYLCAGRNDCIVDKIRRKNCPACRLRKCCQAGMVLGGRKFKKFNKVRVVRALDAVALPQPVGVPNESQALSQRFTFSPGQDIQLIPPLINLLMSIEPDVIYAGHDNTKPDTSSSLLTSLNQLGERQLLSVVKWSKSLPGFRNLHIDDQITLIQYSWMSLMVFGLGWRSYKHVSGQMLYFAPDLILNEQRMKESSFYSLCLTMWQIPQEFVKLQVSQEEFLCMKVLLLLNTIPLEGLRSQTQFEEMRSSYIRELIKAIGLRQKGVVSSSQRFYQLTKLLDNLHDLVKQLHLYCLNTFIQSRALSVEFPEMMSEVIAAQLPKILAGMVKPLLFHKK
# Type: functional

Task item: What AC50 value was documented for this compound, OCCN1CCN(CC/C=C2/c3ccccc3Sc3ccc(Cl)cc32)CC1 ?
Reply: > 10 µM

Task item: Fill in: AC50 of CCCCCCOC(=O)CCC(=O)CN [HEXAMINOLEVULINATE] is ___
Reply: > 30 µM

Task item: Please look up its AC50: Nc1ccn([C@@H]2O[C@H](CO)[C@@H](O)C2(F)F)c(=O)n1
Reply: > 30 µM

Task item: Fill blank: measured AC50 of the compound CNCCCC1c2ccccc2C=Cc2ccccc21 is ____.
Reply: > 10 µM

Task item: What does the data say about its AC50? Entry: N#Cc1ccccc1-c1cc(-c2ccccn2)cn(-c2ccccc2)c1=O
Reply: > 30 µM

Task item: I'd like to know its AC50. The compound in question is CCc1oc2ccccc2c1C(=O)c1cc(Br)c(O)c(Br)c1
Reply: > 30 µM

Task item: Requested read-out: AC50. Entry: NC(=O)c1ncn([C@@H]2O[C@H](CO)[C@@H](O)[C@H]2O)n1
Reply: > 10 µM

Task item: Form field: reported AC50 of NC(=O)CCC/N=C(\c1ccc(Cl)cc1)c1cc(F)ccc1O [PROGABIDE]
Reply: > 10 µM

Task item: Recorded AC50 for CN(C)C(=O)Oc1cc(OC(=O)N(C)C)cc(C(O)CNC(C)(C)C)c1 (stereo unspecified) , please?
Reply: > 30 µM

Task item: Param item = CC1(C)C(/C=C/C=C/C=C/C=C2\N(CCCCS(=O)(=O)O)c3ccc4ccccc4c3C2(C)C)=[N+](CCCCS(=O)(=O)[O-])c2ccc3ccccc3c21 [INDOCYANINE GREEN ACID FORM] ; retrieve measured AC50.
Reply: > 30 µM

Task item: Please report the recorded AC50 for CC(C)(C)NC[C@H](O)COc1nsnc1N1CCOCC1 .
Reply: > 30 µM

Task item: Would you kindly share the measured AC50 for CC1(C)O[C@@H]2C[C@H]3[C@@H]4C[C@H](F)C5=CC(=O)C=C[C@]5(C)[C@H]4[C@@H](O)C[C@]3(C)[C@]2(C(=O)CO)O1 [FLUNISOLIDE] ?
Reply: 0.64 µM

Task item: # query: AC50 of entry CN1CCN(c2c(F)cc3c(=O)c(C(=O)O)cn4c3c2SCC4)CC1
Reply: > 30 µM

Task item: Query: AC50; subject: CC[C@@H](CO)NC(=O)[C@@H]1C=C2c3cccc4[nH]cc(c34)C[C@H]2N(C)C1
Reply: > 30 µM

Task item: Item CC(/C=C1\SC(=S)N(CC(=O)O)C1=O)=C\c1ccccc1 has what recorded AC50?
Reply: > 30 µM

Task item: Item C#C[C@]1(O)CC[C@H]2[C@@H]3CCc4cc(OC)ccc4[C@H]3CC[C@@]21C has what recorded AC50?
Reply: 0.096 µM

----------
# tested_target: Histamine H3 receptor (Homo sapiens, UniProt Q9Y5N1); also: assay procedure not described here
# Sequence (Q9Y5N1 whole entry): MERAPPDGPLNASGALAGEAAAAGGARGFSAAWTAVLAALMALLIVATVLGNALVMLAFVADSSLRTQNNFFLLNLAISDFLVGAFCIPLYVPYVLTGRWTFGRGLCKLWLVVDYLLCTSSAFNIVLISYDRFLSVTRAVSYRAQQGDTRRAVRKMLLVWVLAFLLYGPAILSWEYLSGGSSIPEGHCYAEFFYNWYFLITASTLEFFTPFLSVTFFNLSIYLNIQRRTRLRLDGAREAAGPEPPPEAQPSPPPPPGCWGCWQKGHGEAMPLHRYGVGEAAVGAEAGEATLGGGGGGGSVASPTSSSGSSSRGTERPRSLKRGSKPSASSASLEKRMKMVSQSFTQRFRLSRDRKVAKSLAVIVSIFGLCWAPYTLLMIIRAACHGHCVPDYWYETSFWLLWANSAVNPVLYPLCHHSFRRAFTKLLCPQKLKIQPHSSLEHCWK
result_type: AC50

Task item: // returns reported AC50 for input CS(=O)(=O)OCCCCOS(C)(=O)=O
Reply: > 30 µM

Task item: Would you mind telling me what AC50 value was observed for COc1ccc2c(c1)[C@]13CCCC[C@@H]1[C@H](C2)N(C)CC3 ?
Reply: > 10 µM

Task item: Field request: AC50 | item: COc1cccc(N(C)C(=S)Oc2ccc3c(c2)CCCC3)n1 [LIRANAFTATE]
Reply: > 30 µM

Task item: Using the record for CNC(=O)Oc1ccc2c(c1)[C@]1(C)CCN(C)[C@@H]1N2C , report its AC50.
Reply: 16 µM

Task item: I'd like to know its AC50. The molecule in question is O=C1CN2Cc3c(ccc(Cl)c3Cl)N=C2N1 [ANAGRELIDE]
Reply: > 10 µM

Task item: Look up AC50: CC1(C)O[C@@H]2[C@@H](CO[C@@]3(COS(N)(=O)=O)OC(C)(C)O[C@@H]23)O1 [TOPIRAMATE]
Reply: > 10 µM

Task item: Look at this molecule and give its reported AC50. CCCN(CCC)CCc1cccc2c1CC(=O)N2
Reply: 9.25 µM

Task item: Need AC50 of CCCNC(C)C(=O)Nc1ccccc1C (centres undefined) , thanks.
Reply: > 30 µM

Task item: Requested read-out: AC50. Entry: Cc1cc2nc3c(=O)[nH]c(=O)nc-3n(C[C@H](O)[C@H](O)[C@H](O)COP(=O)(O)O)c2cc1C [RIBOFLAVIN 5'-PHOSPHATE]
Reply: > 30 µM

----------
Please respond with reported AC50 for every item in the list.
# tested_target: 5-hydroxytryptamine receptor 1A (Homo sapiens, UniProt P08908); also: assay procedure not described here
# Sequence (P08908 whole entry): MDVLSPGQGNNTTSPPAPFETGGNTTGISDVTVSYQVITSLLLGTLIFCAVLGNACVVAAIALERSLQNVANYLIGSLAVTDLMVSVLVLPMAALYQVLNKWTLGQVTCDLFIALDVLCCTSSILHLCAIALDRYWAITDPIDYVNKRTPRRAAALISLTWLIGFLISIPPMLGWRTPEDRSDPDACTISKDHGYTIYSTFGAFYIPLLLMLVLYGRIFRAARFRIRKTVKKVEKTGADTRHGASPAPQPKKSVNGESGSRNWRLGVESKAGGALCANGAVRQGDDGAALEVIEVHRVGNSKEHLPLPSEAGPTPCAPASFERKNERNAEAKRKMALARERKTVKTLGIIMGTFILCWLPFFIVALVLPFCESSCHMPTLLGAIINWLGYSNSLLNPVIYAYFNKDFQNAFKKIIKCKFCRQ
# Type: functional, cell-based

Task item: // query AC50 value for entry CC1(C)O[C@@H]2C[C@H]3[C@@H]4C[C@H](F)C5=CC(=O)C=C[C@]5(C)[C@H]4[C@@H](O)C[C@]3(C)[C@]2(C(=O)CO)O1 [FLUNISOLIDE]
Reply: > 30 µM

Task item: Entry under review: CS(=O)(=O)OCCCCOS(C)(=O)=O [BUSULFAN] . Reported AC50?
Reply: > 30 µM

Task item: May I ask what AC50 has been recorded for CN1CCN(c2c(F)cc3c(=O)c(C(=O)O)cn4c3c2SCC4)CC1 [RUFLOXACIN] ?
Reply: > 30 µM

Task item: Item under review: CC(C)OC(=O)C(C(=O)OC(C)C)=C1SC=CS1 [MALOTILATE] . Reported AC50?
Reply: > 30 µM

Task item: Consider the compound shown here: CC(=N)N1CC[C@H](SC2=C(C(=O)O)N3C(=O)[C@H]([C@@H](C)O)[C@H]3C2)C1 What is its recorded AC50?
Reply: > 300 µM

Task item: What value of measured AC50 is listed for CC(CCc1ccccc1)NC(C)C(O)c1ccc(O)cc1 (stereo not given) [NYLIDRIN] ?
Reply: > 10 µM

Task item: Name the reported AC50 value associated with the compound COc1ccc2c(c1)[C@]13CCCC[C@@H]1[C@H](C2)N(C)CC3 [DEXTROMETHORPHAN]
Reply: > 10 µM

Task item: // lookup AC50 for COc1cccc(N(C)C(=S)Oc2ccc3c(c2)CCCC3)n1 [LIRANAFTATE]
Reply: > 30 µM

Task item: Form field: reported AC50 of CC(=O)OCC(CCn1cnc2cnc(N)nc21)COC(C)=O [FAMCICLOVIR]
Reply: > 10 µM

Task item: Entry under review: CCN(CC)C(=O)C1CN2CCc3cc(OC)c(OC)cc3C2CC1OC(C)=O (stereo not given) [BENZQUINAMIDE] . Reported AC50?
Reply: > 30 µM

Task item: What value of AC50 has been recorded for this entry: CCC(=O)OCC(=O)[C@@]1(OC(=O)CC)[C@@H](C)C[C@H]2[C@@H]3CCC4=CC(=O)C=C[C@]4(C)[C@@]3(F)[C@@H](O)C[C@@]21C [BETAMETHASONE DIPROPIONATE]
Reply: > 30 µM

Task item: Which AC50 value is on record for O=C1CN2Cc3c(ccc(Cl)c3Cl)N=C2N1 [ANAGRELIDE] ?
Reply: > 30 µM

Task item: Query (compound): O=C(CCCN1CCC(n2c(O)nc3ccccc32)CC1)c1ccc(F)cc1 [BENPERIDOL] ; field requested: AC50
Reply: > 30 µM

Task item: For CNC[C@H](O)c1cccc(O)c1 [PHENYLEPHRINE] , what is its reported AC50?
Reply: > 30 µM

Task item: Need AC50, item CCCCCCOC(=O)CCC(=O)CN [HEXAMINOLEVULINATE]
Reply: > 30 µM

Task item: Suppose we examine the compound C=C(C)[C@@H]1CCC(C)=C[C@H]1c1c(O)cc(CCCCC)cc1O [CANNABIDIOL] ; what AC50 value has been reported?
Reply: > 10 µM

Task item: Bench note: what AC50 did CCOc1cc(CC(=O)N[C@@H](CC(C)C)c2ccccc2N2CCCCC2)ccc1C(=O)O [REPAGLINIDE] show?
Reply: > 30 µM

Task item: What does the record list as AC50 for CO/N=C(\C(=O)N[C@@H]1C(=O)N2C(C(=O)[O-])=C(C[n+]3cccc4c3CCC4)CS[C@H]12)c1csc(N)n1 [CEFPIROME] ?
Reply: > 30 µM

Task item: Look up AC50: CCN(CC)CC(=O)Oc1ccc(NC(C)=O)cc1 [PROPACETAMOL]
Reply: > 30 µM

Task item: Dear colleague, I am looking for the recorded AC50 of the following compound: CC(NCCc1ccc(O)cc1)C(O)c1ccc(O)cc1 (stereo not given) [RITODRINE]
Reply: > 30 µM

----------
# tested_target: 3',5'-cyclic-AMP phosphodiesterase 4A (Homo sapiens, UniProt P27815); also: assay procedure not described here
# Sequence (P27815 whole entry): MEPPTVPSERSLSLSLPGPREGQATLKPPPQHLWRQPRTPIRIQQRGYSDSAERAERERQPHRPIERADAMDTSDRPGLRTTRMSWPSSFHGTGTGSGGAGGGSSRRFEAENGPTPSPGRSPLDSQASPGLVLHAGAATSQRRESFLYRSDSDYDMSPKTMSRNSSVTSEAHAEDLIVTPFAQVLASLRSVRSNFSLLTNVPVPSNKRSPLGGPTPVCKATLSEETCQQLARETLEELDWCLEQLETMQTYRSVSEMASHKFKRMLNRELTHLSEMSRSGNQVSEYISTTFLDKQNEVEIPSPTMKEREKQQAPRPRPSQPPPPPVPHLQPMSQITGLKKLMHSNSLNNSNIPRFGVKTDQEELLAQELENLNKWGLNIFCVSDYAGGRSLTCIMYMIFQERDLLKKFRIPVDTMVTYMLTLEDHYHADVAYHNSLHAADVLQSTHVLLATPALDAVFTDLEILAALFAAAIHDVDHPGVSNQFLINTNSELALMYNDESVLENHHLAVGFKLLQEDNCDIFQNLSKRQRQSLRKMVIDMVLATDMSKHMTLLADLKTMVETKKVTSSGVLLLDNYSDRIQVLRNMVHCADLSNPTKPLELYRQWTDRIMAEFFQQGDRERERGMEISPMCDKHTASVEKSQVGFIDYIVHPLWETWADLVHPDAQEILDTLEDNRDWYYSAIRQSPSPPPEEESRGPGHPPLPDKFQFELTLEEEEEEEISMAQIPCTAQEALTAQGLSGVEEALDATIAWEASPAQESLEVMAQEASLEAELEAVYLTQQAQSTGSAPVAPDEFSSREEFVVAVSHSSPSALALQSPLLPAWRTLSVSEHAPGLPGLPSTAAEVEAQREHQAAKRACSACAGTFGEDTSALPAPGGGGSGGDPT
# Assay type: functional
result_type: AC50

Task item: I have this compound here, NC(=O)c1nc(F)c[nH]c1=O , and I need its recorded AC50.
Reply: > 30 µM

Task item: AC50 lookup needed for O=C1c2c(O)cccc2Cc2cccc(O)c21 [ANTHRALIN] , thanks.
Reply: 0.262 µM

Task item: Name the recorded AC50 for CCC(=O)O[C@]1(C(=O)COC(C)=O)CC[C@H]2[C@@H]3CCC4=CC(=O)CC[C@]4(C)[C@H]3[C@@H](O)C[C@@]21C [HYDROCORTISONE ACEPONATE] .
Reply: > 30 µM

Task item: Could you tell me which AC50 is on file for Cc1onc(-c2c(Cl)cccc2Cl)c1C(=O)N[C@@H]1C(=O)N2[C@@H]1SC(C)(C)[C@@H]2C(=O)O [DICLOXACILLIN] ?
Reply: > 30 µM
